Cited source for all entries: ChEMBL document CHEMBL1149299

# assay_overview: Cytotoxicity against pig LLC-PK1 cells by MTT assay
# Type: cell-based, Sus scrofa
# details: read-out: LD50 (the source's name)
measured_quantity: CC50

# CC50 of C[N+]1(CCOCCOCCN)CCCC1 = > 80 µM

# CC50 of CCCCCCCCCCCCCCCCCC(=O)NCCOCCOCCN.Cl = > 80 µM
